target_or_system: KRAS_G12D and cRAF (Homo sapiens, UniProt P01116, G12D)
Sequence (P01116 1-188 isoform P01116-2 G12D): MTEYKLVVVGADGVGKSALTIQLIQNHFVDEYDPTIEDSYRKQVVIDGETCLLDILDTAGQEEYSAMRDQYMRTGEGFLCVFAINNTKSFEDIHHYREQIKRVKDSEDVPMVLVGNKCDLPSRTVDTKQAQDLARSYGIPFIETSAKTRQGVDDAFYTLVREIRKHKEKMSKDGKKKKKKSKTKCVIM
protocol_summary: Inhibition of KRAS_G12D/cRAF binding (Cisbio binding kit, 665/615 ratio), Effect Embodiment B
recorded_conditions: read-out: GTP-KRAS-G12D:CRAF IC50
Counter-ions that a name gives are not always drawn.
Binned IC50; ranges: bin 1 (below 30 nM), bin 2 (30 nM to below 200 nM), bin 3 (200 nM or more)

# input Class (by measured IC50) for CNCCCOc1nc(N2CC3CCC(C2)N3)c2cc(Cl)c(-c3cc(O)cc4ccccc34)c(F)c2n1 (single isomer, unassigned) [Compound 93, dihydrochloride]
# output bin 2

# input Bin? CC(C)N(C)CCCOc1nc(N2CC3CCC(C2)N3)c2cc(Cl)c(-c3cc(O)cc4ccccc34)c(F)c2n1 (single isomer, unassigned) [Compound 50a]
# output bin 2

# input Classify this molecule: CC[C@@H]1CN(C[C@@H](C)COc2nc(N3CC4CCC(C3)N4)c3cc(Cl)c(-c4cc(O)cc5ccccc45)c(F)c3n2)C[C@H](CC)O1 (single isomer, unassigned)
# output bin 1

# input Determine which band this molecule sits in: CN1CCC2(C1)CN(c1nc(N3CC4CCC(C3)N4)c3cc(Cl)c(-c4cc(O)cc5ccccc45)c(F)c3n1)C2 (single isomer, unassigned) [Compound 61a]
# output bin 3

# input Classify this molecule: C[C@@H]1C[C@@H](COc2nc(N3CC4CCC(C3)N4)c3cc(Cl)c(-c4cc(O)cc5ccccc45)c(F)c3n2)N(C)C1 (single isomer, unassigned) [Compound 171, dihydrochloride]
# output bin 2

# input Assign a bin to Oc1cc(-c2c(Cl)cc3c(N4CC5CCC(C4)N5)nc(OCCN4CCCC(F)C4)nc3c2F)c2ccccc2c1 (single isomer, unassigned) [Compound 267b]
# output bin 3

# input Classify this molecule: C[C@@H](COc1nc(N2CC3CCC(C2)N3)c2cc(Cl)c(-c3cc(O)cc4ccc(F)cc34)c(F)c2n1)CN1C2CCC1COC2 (single isomer, unassigned) [Compound 234a]
# output bin 1

# input State the class of the molecule shown: CCc1c(F)ccc2cc(O)cc(-c3c(F)cc4c(N5CC6CCC(C5)N6)nc(OCCCN5C6CCC5COC6)nc4c3F)c12 (single isomer, unassigned) [Compound 215a]
# output bin 1

# input Record NCCCOc1nc(N2CC3CCC(C2)N3)c2cc(Cl)c(-c3cc(O)cc4ccccc34)c(F)c2n1 (single isomer, unassigned) [Compound 94, dihydrochloride] — which class?
# output bin 2

# input Lab note: which band did CN1CC[C@H]1COc1nc(N2CC3CCC(C2)N3)c2cc(Cl)c(-c3cc(O)cc4ccccc34)c(F)c2n1 (single isomer, unassigned) land in?
# output bin 2

# input Just checking, what class would you give CC(F)(COc1nc(N2CC3CCC(C2)N3)c2cc(Cl)c(-c3cc(O)cc4ccccc34)c(F)c2n1)CN1C2CCC1COC2 (single isomer, unassigned) [Compound 208b] here?
# output bin 3

# input Lab note: sort CN1CCC[C@H]1COc1nc(N2CC3CCC(C2)N3)c2cc(Cl)c(-c3c(F)c(O)cc4ccccc34)c(F)c2n1 (single isomer, unassigned) [Compound 195b] into the matching IC50 band.
# output bin 3

# input # classify by IC50 band: CCc1cccc2cccc(-c3c(F)cc4c(N5CC6CCC(C5)N6)nc(OC[C@@]56CCCN5C[C@H](F)C6)nc4c3F)c12 (single isomer, unassigned) [Compound 281a, dihydrochloride]
# output bin 1

# input State the class of the molecule shown: CN1CCCC[C@H]1COc1nc(N2CC3CCC(C2)N3)c2cc(Cl)c(-c3cc(O)cc4ccccc34)c(F)c2n1 (single isomer, unassigned) [Compound 56a, dihydrochloride]
# output bin 3

# input Which of the defined bands does the recorded IC50 of CC1OCCN(CCCOc2nc(N3CC4CCC(C3)N4)c3cc(Cl)c(-c4cc(O)cc5ccccc45)c(F)c3n2)C1C (single isomer, unassigned) [Compound 265c] sit within?
# output bin 2

# input Category of CN1CCC[C@H]1COc1nc(N2CC3CCC(C2)N3)c2cc(Cl)c(-c3cc(O)cc4ccccc34)c(F)c2n1 (single isomer, unassigned) [Compound 39a] :
# output bin 1

# input Assign a bin to CC(C)NCCCOc1nc(N2CC3CCC(C2)N3)c2cc(Cl)c(-c3cc(O)cc4ccccc34)c(F)c2n1 (single isomer, unassigned) [Compound 101, dihydrochloride]
# output bin 2

# input Hi, small favor: classify Oc1cc(-c2c(Cl)cc3c(N4CC5CCC(C4)N5)nc(OCCCN4CCC4)nc3c2F)c2ccccc2c1 (single isomer, unassigned) [Compound 59a] by its IC50 when you get a moment.
# output bin 2

# input Kindly identify the class of C#Cc1c(F)ccc2cc(O)cc(-c3c(Cl)cc4c(N5CC6CCC(C5)N6)nc(OCCCN5C6CCC5COC6)nc4c3F)c12 (single isomer, unassigned) [Compound 255b] .
# output bin 1

# input Band for the recorded IC50 of CN(C)C1CN(c2nc(N3CCNCC34CC4)c3cc(Cl)c(-c4cc(O)cc5ccccc45)c(F)c3n2)C1 (single isomer, unassigned) [Compound 19a] ?
# output bin 3

# input Class? Entry: CN1CCC[C@H]1COc1nc(N2CC3CCC(C2)N3)c2cc(F)c(-c3cc(O)cc4ccccc34)c(F)c2n1 [Compound 160, dihydrochloride]
# output bin 2
